# System: Neonatal calvaria (hPTH (1-34)-treated)
# assay-explanation: Inhibition of hPTH (1-34)-stimulated bone resorption in cultured neonatal rat calvaria (calcium accumulation in medium at 6 days)
# Format: cell-based, rat (Wistar)
# protocol-conditions: 144 h, Dose 1 × 10^-7 M, hPTH (1-34) 1×10^-8 M, 37° C.
For each record, write down the corresponding inhibition at 0.1 µM.

Consider the worked cases shown below.
O=C(NC(P(=O)(O)O)P(=O)(O)O)c1ccc2ccccc2n1 | 46.9%
O=C(Nc1ccc(Cl)cc1)C(P(=O)(O)O)P(=O)(O)O | 46.6%

Please go through the list and note inhibition at 0.1 µM for each molecule.
1. O=P(O)(O)C(C(=S)Nc1ccccc1)P(=O)(O)O
2. O=C(NC(P(=O)(O)O)P(=O)(O)O)c1cc2ccccc2s1

Response line:
1: 54.3%; 2: 45%
